Source of measurements: ChEMBL document CHEMBL1961873

Tgt: Ephrin type-B receptor 2 (Homo sapiens)
Experimental context: at 0.1 µM
Listed compounds paired with reported inhibition
Number in %, nothing else.

Below: 5 compounds and their reported inhibition.
INPUT: Return inhibition measured with Ephrin type-B receptor 2 (Homo sapiens) given this compound: "O=C1NC(=O)C(c2cccc(Cl)c2)=C1Nc1ccc(O)c(Cl)c1"
OUTPUT: -3.19

INPUT: Proceed to "Cc1nnc(-c2ccc(C)c(-c3ccc(C(=O)Nc4cccc(C#N)c4)cc3)c2)o1"
OUTPUT: 5.86

INPUT: Proceed to "COc1ccc(-c2nn3ncccc3c2-c2ccnc(Nc3ccc(Cl)c(C(F)(F)F)c3)n2)cc1"
OUTPUT: 3.9

INPUT: Proceed to "O=C1NC(=O)C(c2ccccc2Cl)=C1Nc1cccc(O)c1"
OUTPUT: 5.61

INPUT: Proceed to "COc1ccc(COc2ccc(Cc3cnc(N)nc3N)cc2OC)cc1"
OUTPUT: 1.4

More entries:
INPUT: Return inhibition measured with Ephrin type-B receptor 2 (Homo sapiens) given this compound: "COC(=O)Nc1nc2cc(Oc3cccc(NC(=O)Nc4cc(C(F)(F)F)ccc4F)c3)ccc2[nH]1"
OUTPUT: -0.54

INPUT: Proceed to "O=C1NC(=O)C(c2ccc(Cl)cc2)=C1Nc1ccc(Cl)c(C(=O)O)c1"
OUTPUT: -0.68

INPUT: Proceed to "Nc1ncnc2occ(-c3ccc(NC(=O)Nc4cccc(C(F)(F)F)c4)cc3)c12"
OUTPUT: 74.1

INPUT: Proceed to "Nc1nc(-c2ccccn2)c(-c2ccc3ncccc3n2)s1"
OUTPUT: 5.32

INPUT: Proceed to "Cc1cccc(-c2n[nH]cc2-c2ccc3ncccc3n2)n1"
OUTPUT: 1.55

----------
Tgt: Ephrin type-A receptor 2 (Homo sapiens) (UniProt P29317)
Sequence (P29317 whole entry): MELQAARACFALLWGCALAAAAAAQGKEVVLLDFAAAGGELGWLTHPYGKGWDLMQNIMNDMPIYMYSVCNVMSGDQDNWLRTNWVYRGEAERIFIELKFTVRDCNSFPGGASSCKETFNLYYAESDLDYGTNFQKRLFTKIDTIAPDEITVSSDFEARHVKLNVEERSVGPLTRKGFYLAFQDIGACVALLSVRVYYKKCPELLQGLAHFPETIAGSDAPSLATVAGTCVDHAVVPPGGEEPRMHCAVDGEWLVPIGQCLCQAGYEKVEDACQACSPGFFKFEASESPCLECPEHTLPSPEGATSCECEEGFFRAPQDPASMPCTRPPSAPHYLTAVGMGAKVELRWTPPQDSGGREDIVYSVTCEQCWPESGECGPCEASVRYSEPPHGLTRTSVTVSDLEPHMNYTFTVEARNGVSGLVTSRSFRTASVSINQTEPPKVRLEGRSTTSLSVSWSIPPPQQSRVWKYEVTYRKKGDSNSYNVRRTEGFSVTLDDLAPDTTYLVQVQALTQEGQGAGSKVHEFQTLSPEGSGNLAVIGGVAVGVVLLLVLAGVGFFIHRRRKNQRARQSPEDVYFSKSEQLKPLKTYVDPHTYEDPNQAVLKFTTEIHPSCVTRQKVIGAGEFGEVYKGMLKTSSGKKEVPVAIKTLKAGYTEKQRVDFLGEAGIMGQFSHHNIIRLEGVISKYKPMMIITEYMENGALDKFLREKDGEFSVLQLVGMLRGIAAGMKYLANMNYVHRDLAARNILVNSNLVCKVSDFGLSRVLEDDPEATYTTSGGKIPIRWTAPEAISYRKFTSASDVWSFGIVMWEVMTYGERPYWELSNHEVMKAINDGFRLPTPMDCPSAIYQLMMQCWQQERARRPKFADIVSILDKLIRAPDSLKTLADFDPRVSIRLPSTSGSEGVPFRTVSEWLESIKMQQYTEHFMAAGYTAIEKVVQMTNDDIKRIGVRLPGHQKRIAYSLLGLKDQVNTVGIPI
Experimental context: at 1 µM
Observation type: inhibition (%)
Number in %, nothing else.

Below: 6 molecules and their reported inhibition.
INPUT: Which inhibition is reported for this molecule? COc1ccc2cc(-c3c(-c4ccncc4)nc(-c4ccc([S+](C)[O-])cc4)n3C)ccc2c1 (stereo not given)
OUTPUT: 1.61

INPUT: Proceed to "COc1cc2c(cc1Nc1nc(N3CCc4ccccc43)c3cc[nH]c3n1)N(C(=O)CN(C)C)CC2"
OUTPUT: 2.11

INPUT: Proceed to "COC(=O)Nc1nc2cc(Oc3cccc(NC(=O)Nc4cc(C(F)(F)F)ccc4F)c3)ccc2[nH]1"
OUTPUT: 3.83

INPUT: Proceed to "CCn1c(-c2nonc2N)nc2c(N3CCCC3)nccc21"
OUTPUT: -4.35

INPUT: Proceed to "COc1ccccc1Nc1ncc(-c2ccccc2)o1"
OUTPUT: 1.76

INPUT: Proceed to "Cc1nnc(-c2ccc(C)c(-c3ccc(C(=O)Nc4cccc(C#N)c4)cc3)c2)o1"
OUTPUT: -0.3

More entries:
INPUT: Which inhibition is reported for this molecule? "NCc1ccc(-c2nc(-c3ccc(Cl)c(O)c3)c(-c3ccncc3)[nH]2)cc1"
OUTPUT: 8.19

INPUT: Proceed to "c1cnn2ncc(-c3ccnc(Nc4ccc5c(c4)OCCO5)n3)c2c1"
OUTPUT: 5.71

INPUT: Proceed to "COC(=O)Nc1nc2cc(Oc3ccc(NC(=O)Nc4cccc(C(=O)O)c4)cc3)ccc2[nH]1"
OUTPUT: -4.67

INPUT: Proceed to "N#Cc1c(NC(=O)c2cccc3ccccc23)sc2c1CCCC2"
OUTPUT: -1.43

INPUT: Proceed to "[O-][S+]1CCN(Cc2ccc(-c3ccc4ncnc(Nc5ccc(OCc6ccccc6)c(F)c5)c4c3)o2)CC1"
OUTPUT: -0.21

INPUT: Proceed to "CS(=O)(=O)CCNCc1nc(-c2ccc3ncnc(Nc4ccc(F)c(Cl)c4)c3c2)cs1"
OUTPUT: 1.65

INPUT: Proceed to "CS(=O)(=O)CCNCc1ccc(-c2ccc3ncnc(Nc4ccc(OCc5ccccc5)c(Cl)c4)c3c2)o1"
OUTPUT: -2.31

INPUT: Proceed to "CCn1c(-c2nonc2N)nc2ccncc21"
OUTPUT: 1.77

INPUT: Proceed to "CCn1c(-c2nonc2N)nc2c(C#CC(C)(C)O)nc(OC[C@@H](N)c3ccccc3)cc21"
OUTPUT: 0.2

INPUT: Proceed to "Fc1cccc(COc2ccc(Nc3ncnc4cc(-c5ccc[nH]5)sc34)cc2Cl)c1"
OUTPUT: -6.16

INPUT: Proceed to "O=C1NC(=O)C(N2CCc3ccccc32)=C1c1ccc(Cl)cc1"
OUTPUT: 1.75

INPUT: Proceed to "Cn1cc(C=C2C(=O)Nc3cccnc32)c2ccccc21"
OUTPUT: 0.79

INPUT: Proceed to "COc1cc2ncn(-c3cc(O[C@H](C)c4ccccc4Cl)c(C(N)=O)s3)c2cc1OC"
OUTPUT: 6.5

INPUT: Proceed to "Cc1ccc(NC(=O)c2ccnc(N3CCCC3)c2)cc1-c1ccc(C(=O)NCC2CC2)cc1"
OUTPUT: -2.02

----------
Tgt: G protein-coupled receptor kinase 6 (Homo sapiens) (UniProt P43250)
Sequence (P43250 whole entry, looked up): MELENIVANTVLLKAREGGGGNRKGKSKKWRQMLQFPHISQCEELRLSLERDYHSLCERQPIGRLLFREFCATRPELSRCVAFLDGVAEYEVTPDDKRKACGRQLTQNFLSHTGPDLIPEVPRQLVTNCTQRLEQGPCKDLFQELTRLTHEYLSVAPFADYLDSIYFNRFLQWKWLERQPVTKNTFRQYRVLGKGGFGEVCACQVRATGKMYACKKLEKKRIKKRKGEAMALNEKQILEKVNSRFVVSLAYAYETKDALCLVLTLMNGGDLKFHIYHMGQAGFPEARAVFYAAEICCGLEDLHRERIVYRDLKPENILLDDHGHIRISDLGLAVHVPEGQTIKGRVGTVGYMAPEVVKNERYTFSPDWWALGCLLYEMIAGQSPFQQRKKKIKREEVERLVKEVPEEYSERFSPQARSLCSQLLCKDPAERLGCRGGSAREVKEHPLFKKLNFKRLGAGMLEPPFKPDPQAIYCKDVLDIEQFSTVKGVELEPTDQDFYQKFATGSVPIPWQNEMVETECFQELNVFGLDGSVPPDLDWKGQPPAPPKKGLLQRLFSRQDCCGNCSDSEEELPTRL
Experimental context: at 1 µM
Observation type: inhibition
Write the numeric value and follow it with the unit.

Below: 4 molecules and their reported inhibition.
INPUT: Which inhibition is reported for this molecule? "Nc1nc(-c2ccccn2)c(-c2ccc3ncccc3n2)s1"
OUTPUT: 1.87%

INPUT: Proceed to "N#Cc1c(NC(=O)c2cccc3ccccc23)sc2c1CCCC2"
OUTPUT: 3.47%

INPUT: Proceed to "COc1ccc(-c2nn3ncccc3c2-c2ccnc(Nc3ccc(Cl)c(C(F)(F)F)c3)n2)cc1"
OUTPUT: 9.79%

INPUT: Proceed to "CC(C)=Cc1cccc2c1/C(=N/Nc1ccc(S(N)(=O)=O)cc1)C(=O)N2"
OUTPUT: 8.62%

# input for lookup
INPUT: Which inhibition is reported for this molecule? "CCCN1CCC=C(c2ccc(Nc3nc(Nc4ccccc4C(N)=O)c4cc[nH]c4n3)c(C)c2)C1"
OUTPUT: 31.4%

----------
Listed compounds paired with reported inhibition
Tgt: Cyclin-dependent kinase 6 (Homo sapiens)
Experimental context: at 1 µM
Number in %, nothing else.

Below: 4 compounds and their reported inhibition.
INPUT: Which inhibition is reported for this compound? "O=C(Nc1n[nH]c2nc(-c3ccco3)c(Br)cc12)C1CC1"
OUTPUT: 12.9

INPUT: Proceed to "COc1ccccc1Nc1ncc(-c2ccccc2)o1"
OUTPUT: -0.99

INPUT: Proceed to "COc1cc(C)c(NC(=O)CN(C)C)cc1Nc1nc(Nc2cccc(F)c2C(N)=O)c2cc[nH]c2n1"
OUTPUT: 3.87

INPUT: Proceed to "COc1cc2ncn(-c3cc(OCc4ccccc4C(F)(F)F)c(C(N)=O)s3)c2cc1OC"
OUTPUT: -1.7

More entries:
INPUT: Which inhibition is reported for this compound? "O=C1NC(=O)C(c2cccc(Cl)c2)=C1Nc1ccc(O)c(Cl)c1"
OUTPUT: 12.6

INPUT: Proceed to "Nc1nc(-c2ccccn2)c(-c2ccc3ncccc3n2)s1"
OUTPUT: 7.75

----------
Listed molecules paired with reported inhibition
Tgt: Cyclin-dependent kinase 4 (Homo sapiens)
Experimental context: at 0.1 µM
Description: GSK_PKIS: CDK4/cyclinD mean inhibition at 0.1 uM [Nanosyn]
Number in %, nothing else.

INPUT: Which inhibition is reported for this molecule? "CS(=O)(=O)CCNCc1nc(-c2ccc3ncnc(Nc4ccc(F)c(Cl)c4)c3c2)cs1"
OUTPUT: 0.51

INPUT: Proceed to "COc1cc2ncn(-c3cc(OCc4ccccc4Cl)c(C(N)=O)s3)c2cc1OC"
OUTPUT: 2.27

INPUT: Proceed to "COc1cc(C=NNc2ncnc3c2cnn3-c2ccccc2)ccc1O"
OUTPUT: 3.09

INPUT: Proceed to "COc1cc2c(cc1Nc1nc(N3CCc4ccccc43)c3cc[nH]c3n1)N(C(=O)CN(C)C)CC2"
OUTPUT: 2.1

More entries:
INPUT: Which inhibition is reported for this molecule? "Nc1ncnc2occ(-c3ccc(NC(=O)Nc4cccc(C(F)(F)F)c4)cc3)c12"
OUTPUT: 3.45

INPUT: Proceed to "Cn1cc(C=C2C(=O)Nc3cccnc32)c2ccccc21"
OUTPUT: 4.89

INPUT: Proceed to "COc1cc2ncn(-c3cc(O[C@H](C)c4ccccc4Cl)c(C(N)=O)s3)c2cc1OC"
OUTPUT: 2.41

INPUT: Proceed to "CCn1c(-c2nonc2N)nc2c(C#CC(C)(C)O)nc(OC[C@@H](N)c3ccccc3)cc21"
OUTPUT: -0.22

INPUT: Proceed to CC1=C(C(=O)Nc2ccc3[nH]ncc3c2)C(c2ccc3ccccc3c2)CC(=O)N1 (stereo not drawn)
OUTPUT: 2.41

----------
Tgt: Dual specificity protein kinase CLK2 (Homo sapiens) (UniProt P49760)
Sequence (P49760 whole entry, looked up): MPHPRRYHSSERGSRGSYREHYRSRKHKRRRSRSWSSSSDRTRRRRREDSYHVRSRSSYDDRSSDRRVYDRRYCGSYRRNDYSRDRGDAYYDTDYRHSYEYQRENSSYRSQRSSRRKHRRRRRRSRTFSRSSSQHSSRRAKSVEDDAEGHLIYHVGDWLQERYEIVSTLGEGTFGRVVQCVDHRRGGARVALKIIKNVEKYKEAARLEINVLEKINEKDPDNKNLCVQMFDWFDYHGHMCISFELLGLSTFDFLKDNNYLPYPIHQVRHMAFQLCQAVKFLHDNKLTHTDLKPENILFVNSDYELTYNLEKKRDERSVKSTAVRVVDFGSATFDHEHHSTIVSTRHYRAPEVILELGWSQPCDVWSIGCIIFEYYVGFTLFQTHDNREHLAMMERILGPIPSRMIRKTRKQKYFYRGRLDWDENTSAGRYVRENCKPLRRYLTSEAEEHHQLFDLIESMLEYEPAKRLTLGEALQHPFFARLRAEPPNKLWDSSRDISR
Experimental context: at 0.1 µM
Description: GSK_PKIS: CLK2 mean inhibition at 0.1 uM [Nanosyn]
Listed molecules paired with reported inhibition
Number in %, nothing else.

INPUT: Which inhibition is reported for this molecule? "O=C1Nc2ccc(C(=O)c3ccco3)cc2C1=Cc1cc(Cl)c(O)c(Cl)c1"
OUTPUT: 64.6

INPUT: Proceed to "CCn1c(-c2nonc2N)nc2c(C#CC(C)(C)O)nc(OC[C@@H](N)c3ccccc3)cc21"
OUTPUT: 0.81

INPUT: Proceed to "c1cnn2ncc(-c3ccnc(Nc4ccc5c(c4)OCCO5)n3)c2c1"
OUTPUT: 90.1

INPUT: Proceed to "COc1cc2ncn(-c3cc(O[C@H](C)c4ccccc4Cl)c(C(N)=O)s3)c2cc1OC"
OUTPUT: 3.38

INPUT: Proceed to "NS(=O)(=O)c1ccc(N/N=C2\C(=O)Nc3ccc(C(=O)NCCc4c[nH]cn4)cc32)cc1"
OUTPUT: 46.5

INPUT: Proceed to "Nc1ncnc2occ(-c3ccc(NC(=O)Nc4cccc(C(F)(F)F)c4)cc3)c12"
OUTPUT: 0.14

More entries:
INPUT: Which inhibition is reported for this molecule? "CCCN1CCC(Oc2cc(Nc3nc(Nc4cccc(F)c4C(N)=O)c4cc[nH]c4n3)c(OC)cc2Cl)CC1"
OUTPUT: 9.9

INPUT: Proceed to "COc1cc2ncn(-c3cc(O[C@@H](C)c4ccccc4Cl)c(C(N)=O)s3)c2cc1OC"
OUTPUT: 0.33

INPUT: Proceed to "COc1ccc(COc2ccc(Cc3cnc(N)nc3N)cc2OC)cc1"
OUTPUT: 2.03

INPUT: Proceed to "Nc1nc(-c2ccc3c(c2)C(=Cc2cc(Br)c(O)c(Br)c2)C(=O)N3)cs1"
OUTPUT: 1.02

INPUT: Proceed to "Cc1cccc(-c2n[nH]cc2-c2ccc3ncccc3n2)n1"
OUTPUT: -0.31

INPUT: Proceed to "O=C1NC(=O)C(c2ccc(Cl)cc2)=C1Nc1ccc(Cl)c(C(=O)O)c1"
OUTPUT: -0.15
